- Target or test system: SaTBP;SaTFB (TFB1) (Sulfolobus acidocaldarius;Sulfolobus acidocaldarius)
- Test name: smFRET titration (confocal)
- Experimental conditions: SaTFB titrated; 14 uM SaTBP; smFRET: N70 buffer (Mj) or N65 buffer (Sa), compositions in Table 1 not in the material; Sa EMSA: 10 mM MOPS pH 6.5, 180 mM NaCl, 20 mM KOAc, 11 mM MgCl2, 10% …
Property: Kd (nM)
Numbers only, in nM.

Item under review: CGGACCGAAAGCGCGACCATCGCCGGAGATTGGAGTAAAGTTTAAATACTG (double strand) [DNASSV (SSV T6 promoter)] . Reported Kd?
363
